assay-readout: melting point

molecule | assay-readout | reported-measurement
CCCCCCCCCCCCCCCCC(Cl)C(=O)O (stereo unspecified) | melting point | 63.5 to 64 °C
CC(C)=C1c2ccccc2-c2ccccc21 | melting point | 112 to 113 °C
CCOC(=O)C(=O)Nc1nccs1 | melting point | 174 to 177 °C
C=C(C)COc1ccc(Br)cc1CN(CC)c1ccc(-c2cc(O)n(C)n2)nn1 | melting point | 151 to 152 °C
O=c1c2cc(OCc3ccccc3)ccc2[nH]c2c([N+](=O)[O-])ccc(Cl)c12 | melting point | 216 to 217 °C

Would you kindly look at the next entry?
Give the measured melting point of CC(C)C(=O)NC(C)(C)C .
117 to 119 °C
